Value source: ChEMBL document CHEMBL5352462

Overview of recorded IC50 for various compounds
# Test system: HT-29
# ASSAY_INFO: Cytotoxicity against human HT-29 cells incubated for 24 hrs by MTT assay
# Assay type: functional, cell-based
# TEST_SETTINGS: HT-29, 24 h
QUANTITY_MEASURED: IC50 (µM)

1) CCCCCCCCCCCC(=O)Oc1ccc(C=Cc2cc(OC(=O)CCCCCCCCCCC)cc(OC(=O)CCCCCCCCCCC)c2)cc1; 134
2) COc1cc(-c2cc3ccc(O)cc3o2)cc(OC)c1OC; 14
3) COc1ccc(-c2cc3cc(OC)cc(OC)c3[nH]2)cc1; 211
4) COc1ccc(OC)c(-c2cc3ccc(OCc4ccccc4)cc3[nH]2)c1; 239
5) COc1ccc(OC)c(-c2cc3ccc(O)cc3[nH]2)c1; 10
6) Oc1ccc2cc(-c3cc(O)c(O)c(O)c3)oc2c1; 56
7) OCCOc1ccc(/C=C/c2cc(OCCO)cc(OCCO)c2)cc1; 23
8) CC(C)(C)C(=O)Oc1ccc(/C=C/c2cc(OC(=O)C(C)(C)C)cc(OC(=O)C(C)(C)C)c2)cc1; 56
9) COc1cc(OC)cc(-c2cc3ccc(O)cc3o2)c1; 19
10) COc1ccc(-c2cc3cc(C)cc(C)c3[nH]2)cc1; 331
11) Oc1ccc(/C=C/c2cc(O)cc(O)c2)cc1 [RESVERATROL]; 78
